Where do the numbers come from? From patent US20260364003A1.

PROTOCOL_TEXT: Physicochemical characterization of lipid microsuspensions (pH, viscosity, osmolality, particle size)
MEASUREMENT_SETUP: Table 9, lipid microsuspension containing the drug
MEASURED_ATTRIBUTE: Particle size Dx(10) (μm)

MOLECULE	MEASURED
CCOC(=O)O[C@]1(C(=O)OCCl)CC[C@H]2[C@@H]3CCC4=CC(=O)C=C[C@]4(C)[C@H]3[C@@H](O)C[C@@]21C [Loteprednol etabonate, loteprednol etabonate]	1.5
C=CC[C@@H]1/C=C(\C)C[C@H](C)C[C@H](OC)[C@H]2O[C@@](O)(C(=O)C(=O)N3CCCC[C@H]3C(=O)O[C@H](/C(C)=C/[C@@H]3CC[C@@H](O)[C@H](OC)C3)[C@H](C)[C@@H](O)CC1=O)[C@H](C)C[C@@H]2OC [Tacrolimus, tacrolimus]	1.5
CO[C@H]1C[C@@H]2CC[C@@H](C)[C@@](O)(O2)C(=O)C(=O)N2CCCC[C@H]2C(=O)O[C@H]([C@H](C)C[C@@H]2CC[C@@H](O)[C@H](OC)C2)CC(=O)[C@H](C)/C=C(\C)[C@@H](O)[C@@H](OC)C(=O)[C@H](C)C[C@H](C)/C=C/C=C/C=C/1C [Sirolimus, sirolimus]	1.5
C[C@@H]1C[C@H]2[C@@H]3CCC4=CC(=O)C=C[C@]4(C)[C@@]3(F)[C@@H](O)C[C@]2(C)[C@@]1(O)C(=O)CO [Dexamethasone, dexamethasone]	1.4

###

PROTOCOL_TEXT: Physicochemical characterization of lipid microsuspensions (pH, viscosity, osmolality, particle size)
MEASUREMENT_SETUP: Table 9, lipid microsuspension containing the drug
MEASURED_ATTRIBUTE: pH

MOLECULE	MEASURED_ATTRIBUTE	MEASURED
C[C@@H]1C[C@H]2[C@@H]3CCC4=CC(=O)C=C[C@]4(C)[C@@]3(F)[C@@H](O)C[C@]2(C)[C@@]1(O)C(=O)CO	pH	6.4
C=CC[C@@H]1/C=C(\C)C[C@H](C)C[C@H](OC)[C@H]2O[C@@](O)(C(=O)C(=O)N3CCCC[C@H]3C(=O)O[C@H](/C(C)=C/[C@@H]3CC[C@@H](O)[C@H](OC)C3)[C@H](C)[C@@H](O)CC1=O)[C@H](C)C[C@@H]2OC	pH	5.0
CCOC(=O)O[C@]1(C(=O)OCCl)CC[C@H]2[C@@H]3CCC4=CC(=O)C=C[C@]4(C)[C@H]3[C@@H](O)C[C@@]21C [Loteprednol etabonate, loteprednol etabonate]	pH	6.5
CO[C@H]1C[C@@H]2CC[C@@H](C)[C@@](O)(O2)C(=O)C(=O)N2CCCC[C@H]2C(=O)O[C@H]([C@H](C)C[C@@H]2CC[C@@H](O)[C@H](OC)C2)CC(=O)[C@H](C)/C=C(\C)[C@@H](O)[C@@H](OC)C(=O)[C@H](C)C[C@H](C)/C=C/C=C/C=C/1C	pH	5.9

###

PROTOCOL_TEXT: Physicochemical characterization of lipid microsuspensions (pH, viscosity, osmolality, particle size)
MEASUREMENT_SETUP: Table 9, lipid microsuspension containing the drug
MEASURED_ATTRIBUTE: Particle size Dx(90) (μm)

Solved entries:
COMPOUND	UNIT_ABBREVIATION	MEASURED
CO[C@H]1C[C@@H]2CC[C@@H](C)[C@@](O)(O2)C(=O)C(=O)N2CCCC[C@H]2C(=O)O[C@H]([C@H](C)C[C@@H]2CC[C@@H](O)[C@H](OC)C2)CC(=O)[C@H](C)/C=C(\C)[C@@H](O)[C@@H](OC)C(=O)[C@H](C)C[C@H](C)/C=C/C=C/C=C/1C	μm	25
C=CC[C@@H]1/C=C(\C)C[C@H](C)C[C@H](OC)[C@H]2O[C@@](O)(C(=O)C(=O)N3CCCC[C@H]3C(=O)O[C@H](/C(C)=C/[C@@H]3CC[C@@H](O)[C@H](OC)C3)[C@H](C)[C@@H](O)CC1=O)[C@H](C)C[C@@H]2OC	μm	22

a. CCOC(=O)O[C@]1(C(=O)OCCl)CC[C@H]2[C@@H]3CCC4=CC(=O)C=C[C@]4(C)[C@H]3[C@@H](O)C[C@@]21C [Loteprednol etabonate, loteprednol etabonate]
b. C[C@@H]1C[C@H]2[C@@H]3CCC4=CC(=O)C=C[C@]4(C)[C@@]3(F)[C@@H](O)C[C@]2(C)[C@@]1(O)C(=O)CO
// pick min by Particle size Dx(90): a , b Your choice should be expressed through its label.
b
